The following binders are listed with their measured pKd values.
target: T1, cynomolgus CD73 on cells (cynomolgus); assay: flow cytometry on MK-1 cells, IgG1-TM
T1 construct: whole, on cells; also called native CD73 on MK-1 cells (cynomolgus)
pKd: −log10 of the molar value.
measurementKind: pKd

INSERT INTO results (binder, observedvalue) VALUES
  ('C2 (antibody, IgG1, V domains shown, also called clone 10 C2) VH: EVQLLESGGGLVQPGGSLRLSCAASGFTFSSYAYSWVRQAPGKGLEWVSLIWGSWGSTYYADSVKGRFTISRDNSKNTLYLQMNSLRAEDTAVYYCARLGYSTIDMWGRGTLVTVSS VL: QSVLTQPPSASGTPGQRVTISCSGSLSNIGRNPVNWYQQLPGTAPKLLIYLDNLRLGGVPDRFSGSKSGTSASLAISGLQSEDEADYYCATWDDSLKGWLFGGGTKLTVL', 9.98),
  ('73combo5 (G10 + GRVE + HPT) (antibody, IgG1, V domains shown, also called clone 10 combo5) VH: EVQLLESGGGLVQPGGSLRLSCAASGFTFSSYAYSWVRQAPGKGLEWVSAISGSWGRTYYADSVKGRFTISRDNSKNTLYLQMNSLRAEDTAVYYCARLGYGRVDEWGRGTLVTVSS VL: QSVLTQPPSASGTPGQRVTISCSGSLSNIGRNDVNWYQQLPGTAPKLLIYLNNQRLGGVPDRFSGSKSGTSASLAISGLQSEDEADYYCATWDDSHPGWTFGGGTKLTVL', 10.11),
  ('MEDI9447 (antibody, V domains shown, also called clone 10.3 antibody; 73combo3) VH: EVQLLESGGGLVQPGGSLRLSCAASGFTFSSYAYSWVRQAPGKGLEWVSAISGSGGRTYYADSVKGRFTISRDNSKNTLYLQMNSLRAEDTAVYYCARLGYGRVDEWGRGTLVTVSS VL: QSVLTQPPSASGTPGQRVTISCSGSLSNIGRNPVNWYQQLPGTAPKLLIYLDNLRLSGVPDRFSGSKSGTSASLAISGLQSEDEADYYCATWDDSHPGWTFGGGTKLTVL', 10.08);
